tested_on: recombinant human TFPI (tissue factor pathway inhibitor) (human, UniProt P10646 29-304)
assay_overview: cell-based or functional assay
Class 1 (yes): FXa assay OD, 5 nM Ab, 10 nM TFPI at least 0.3. Class 0 (no): FXa assay OD, 5 nM Ab, 10 nM TFPI below 0.3.

Asked: Determine whether this binder has FXa assay OD, 5 nM Ab, 10 nM TFPI no lower than 0.3: clone 7 (antibody, V domains shown) VH: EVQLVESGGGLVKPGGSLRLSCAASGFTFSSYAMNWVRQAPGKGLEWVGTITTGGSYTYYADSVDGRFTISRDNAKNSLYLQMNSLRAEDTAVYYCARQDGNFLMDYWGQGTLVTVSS VL: DVVMTQTPLSLPVTLGQPASISCKSSPSLLDVDGKTYLNWLQQRPGQSPKRLIYLVSKLDSGVPDRFTGSGSGTDFTLKISRVEAEDVGVYYCWQGTHFPFTFGQGTKVEIKR
Given back: 0 (no)

Asked: Quick check, FXa assay OD, 5 nM Ab, 10 nM TFPI >= 0.3? clone 8 (antibody, V domains shown) VH: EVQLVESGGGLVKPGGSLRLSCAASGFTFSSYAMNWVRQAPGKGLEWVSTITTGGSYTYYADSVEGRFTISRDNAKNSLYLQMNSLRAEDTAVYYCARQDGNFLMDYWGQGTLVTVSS VL: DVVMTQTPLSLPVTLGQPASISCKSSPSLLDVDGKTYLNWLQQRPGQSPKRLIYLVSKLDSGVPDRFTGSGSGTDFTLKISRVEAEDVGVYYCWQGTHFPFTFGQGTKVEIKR
Given back: 0 (no)

Asked: # bool: FXa assay OD, 5 nM Ab, 10 nM TFPI of clone 3 (antibody, V domains shown) VH: EVQLVESGGGLVKPGGSLRLSCAASGFTFSSYAMNWVRQAPGKGLEWVGTITTGGSHTYYADSVDGRFTISRDNAKNSLYLQMNSLRAEDTAVYYCARQDGNFLMDYWGQGTLVTVSS VL: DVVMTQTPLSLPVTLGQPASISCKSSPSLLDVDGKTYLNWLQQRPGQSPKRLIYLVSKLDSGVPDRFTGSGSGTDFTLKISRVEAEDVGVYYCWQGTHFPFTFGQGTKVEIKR >= 0.3
Given back: 1 (yes)

Asked: Hello, I need to know if clone 10 (antibody, V domains shown) VH: EVQLVESGGGLVKPGGSLRLSCAASGFTFSSYAMNWVRQAPGKGLEWVSTITTGGSYTYYADSVQGRFTISRDNAKNSLYLQMNSLRAEDTAVYYCARQDGNFLMDYWGQGTLVTVSS VL: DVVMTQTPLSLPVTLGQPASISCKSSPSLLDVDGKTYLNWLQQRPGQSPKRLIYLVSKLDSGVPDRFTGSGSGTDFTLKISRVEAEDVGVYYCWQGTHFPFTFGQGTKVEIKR has measured FXa assay OD, 5 nM Ab, 10 nM TFPI not below 0.3. Thanks!
Given back: 0 (no)

Asked: Dear colleague, could you confirm whether clone 2 (antibody, V domains shown) VH: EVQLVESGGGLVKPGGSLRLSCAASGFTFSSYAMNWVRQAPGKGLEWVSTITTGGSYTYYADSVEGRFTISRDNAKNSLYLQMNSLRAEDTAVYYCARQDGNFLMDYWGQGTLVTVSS VL: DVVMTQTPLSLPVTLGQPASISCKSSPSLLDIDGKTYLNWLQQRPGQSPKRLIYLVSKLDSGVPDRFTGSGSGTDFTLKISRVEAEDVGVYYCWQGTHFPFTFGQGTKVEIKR has FXa assay OD, 5 nM Ab, 10 nM TFPI at or above 0.3?
Given back: 1 (yes)
